TARGET_UNDER_TEST: BRD4 (BDI_K57-E168) (Homo sapiens (Human), UniProt O60885)
METHOD_NOTES: TR-FRET bromodomain binding assay, BRD4 first bromodomain
ASSAY_CONTEXT: His-tagged BD1, 100 nM Alexa647 probe
PROPERTY_MEASURED: Ki (µM)
Number only, in µM; omit the unit.

Cc1[nH]c(-c2cc(C(=O)NCC3CCCO3)ccc2Oc2ccccc2)c2c1C(=O)CCC2 (stereo not shown)
0.068
Cc1ccccc1OCc1ccccc1-c1[nH]c(C)c2c1CCCC2=O
4.24
Cc1[nH]c(-c2ccccc2)c2c1C(=O)CC(C)(C)C2
3.23
Cc1[nH]c(-c2cc(NS(C)(=O)=O)ccc2Oc2ccccc2)c2c1C(=O)CCC2
0.015
Cc1[nH]c(-c2ccccc2OCc2ccccn2)c2c1C(=O)CCC2
1.35

Query: Find Ki for Cc1[nH]c(-c2cc(C(=O)Nc3nccs3)ccc2Oc2ccccc2)c2c1C(=O)CCC2 on BRD4 (BDI_K57-E168) (Homo sapiens (Human), UniProt O60885) and write it down.
Response: 1.07

Query: Report measured Ki on BRD4 (BDI_K57-E168) (Homo sapiens (Human), UniProt O60885); entry: Cc1[nH]c(-c2cc(N)ccc2Oc2ccccc2)c2c1C(=O)CC(C)C2 (stereo not shown)
Response: 0.058
